Property: polymerase ribozyme fitness (log ratio); scope: individual variants
B1: TPR 5TU (parent)
chain: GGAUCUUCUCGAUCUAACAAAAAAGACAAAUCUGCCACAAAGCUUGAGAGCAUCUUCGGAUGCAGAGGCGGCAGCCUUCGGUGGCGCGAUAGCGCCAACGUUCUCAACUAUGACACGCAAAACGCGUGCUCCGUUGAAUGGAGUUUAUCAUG

variants of: B1; assay: polymerase ribozyme fitness, log enrichment relative to wild type (log ratio); higher = more active; in vitro selection for triplet polymerase activity
Fewer inactive variants are shown than the library holds.
I'd appreciate a reply containing only the number, no unit.

Use these answered entries as a reference point.
> print(dat)
        variant.description  meas.value
1                C96U G124A      -0.382
2  A22U C38A G59A C85U C95A      -0.962
3                A12C C114U       -2.51
4            A49U U55A U56G       -1.76
5   U7G G48A G59A A60G A97G       -3.81

Consider now this further variant.
**Q:** Dear colleague, I am looking for the recorded polymerase ribozyme fitness (log ratio) of the following variant: U31C C69G C96U G117U C118G
**A:** -1.49

The measured values listed here are drawn from the RNAGym collection of RNA variant scans (doi:10.1073/pnas.2313332121).
